SYSTEM_UNDER_TEST: DRB1*0901 (Homo sapiens, UniProt P01903+P01911, A100R/A103E/D57H/D86V/F55Y/F60I/F76Y/I96F/K127E/L162R/M171V/P40D/Q125H/Q99R/R33Q/R42F/S133A/S66N/T210M/V115G/W38K/Y107V/Y59G/Y89S)
TEST_PROTOCOL: Identification of HLA class II restriction molecule binding the antigen peptide
Type: cell-based
ASSAY_METRIC: binding to HLA class II molecule DRB1*0901

{"SUBSTANCE": "p16-30 (SEQ ID NO: 12): antigen peptide derived from Cry j 2, residues 16-30 (GKHDCTEAFSTAWQA; Cryptomeria)", "VALUE_MEASURED": "binds to"}
{"SUBSTANCE": "p151-165 (SEQ ID NO: 16): antigen peptide derived from Cry j 2, residues 151-165 (PEFHLVFGNCEGVKI; Cryptomeria)", "VALUE_MEASURED": "binds to"}
{"SUBSTANCE": "p321-335 (SEQ ID NO: 20): antigen peptide derived from Cry j 2, residues 321-335 (ATAAAIQLKCSDSMP; Cryptomeria)", "VALUE_MEASURED": "binds to"}
{"SUBSTANCE": "p151-165 (SEQ ID NO: 6): antigen peptide derived from Cry j 1, residues 151-165 (DALTLRTATNIWIDH; Cryptomeria)", "VALUE_MEASURED": "binds to"}
